# Target System: SARS-CoV-2 Spike receptor binding domain (RBD), wild type, His-tagged (SARS-CoV-2, UniProt P0DTC2)
Hi there, I'd appreciate the recorded pKd for every entry that follows.
Note: pKd values are expressed as the negative base-10 logarithm of concentration in M.

Lab book: pKd of 56 (antibody, V domains shown) VH: QVQLVQSGAEVKKPGASVKVSCKASGYTFTSYGISWVRQAPGQGLEWMGWISAYNGNTNYAQKLQGRVTMTRDTSTSTVYMELSSLRSEDTAVYYCARDIGPIDYWGQGTLVTVSS VL: DIQMTQSPSSLSASVGDRVTITCRASQGISSYLAWYQQKPGKAPKLLIYDASNLQSGVPSRFSGSGSGTDFTLTISSLQPEDFATYYCQQANSFPSTFGQGTKVEIK noted as 7.64

Lab book: pKd of 178 (antibody, V domains shown) VH: QVQLVQSGAEVKKPGASVKVSCKASGYTFTDYHMHWVRQAPGQGLEWMGWINPNSGGTNYAQKFQGRVTMTRDTSTSTVYMELSSLRSEDTAVYYCARDISSWYEITKFDPWGQGTLVTVSS VL: EIVMTQSPATLSVSPGERATLSCKASQSVSGTYLAWYQQKPGQAPRLLIYGASTRATGIPARFSGSGSGTEFTLTISSLQSEDFAVYYCLQTHSYPPTFGQGTKVEIK noted as 7.14

Lab book: pKd of 120 (antibody, V domains shown) VH: QVQLVQSGAEVKKPGASVKVSCKASGYTFTSYDINWVRQAPGQGLEWMGMIDPSGGSTSYAQKFQGRVTMTRDTSTSTVYMELSSLRSEDTAVYYCAKDFGGGTRYDYWYFDLWGRGTLVTVSS VL: EIVMTQSPATLSVSPGERATLSCRASQSVSSRYLAWYQQKPGQAPRLLIYGASTRATGIPARFSGSGSGTEFTLTISSLQSEDFAVYYCQQYYTTPRTFGQGTRLEIK noted as 7.62
